System: MV4-11
ASSAY_DETAILS: CellTox Green cytotoxicity fluorescence relative to DMSO vehicle (fold of vehicle RFU); higher = more cell death (loss of membrane integrity), active = 2 or more
MEASUREMENT_CONDITIONS: 0.1 µM; 48 h
Entries and their CellTox Green cytotoxicity fluorescence
Please respond with just the number, no unit label.

Nc1ccccc1NC(=O)c1cnccn1: 0.984
COc1cc(C(=O)N2CCC(N3CCN(C)CC3)CC2)ccc1Nc1ncc2c(n1)N(C)c1ccccc1C(=O)N2C: 1.03
CCS(=O)(=O)N1CCN(c2ccc(Nc3ncc(C(N)=O)c(NC4CC4)n3)cc2)CC1: 0.965

Could you share which CellTox Green cytotoxicity fluorescence value was measured for `CC(C)[C@H](CO)Nc1nc(Nc2cccc(Cl)c2)c2ncn(C(C)C)c2n1` ?
1.04
